# Test system: SEM cells
# Assay text: AUC of viability dose-response curve (% viability x log10 dose units); higher = less sensitive
# Conditions used: HPLM + 10% dialyzed FBS; 48 h
Some compounds, each annotated with its measured AUC of viability dose-response curve.
Simply state the number, no unit and no words.

Previously resolved entries follow.
q: Consider the compound shown here: `O=C(Nc1cccc(Nc2ncc(Br)c(NCCc3cnc[nH]3)n2)c1)N1CCCC1` What is its recorded AUC of viability dose-response curve?
a: 213

q: Returns the measured AUC of viability dose-response curve for the input compound. Input: `O=C1Nc2cc(Br)ccc2/C1=C1/Nc2ccccc2/C1=N\O`
a: 296

q: Need AUC of viability dose-response curve, item `CCCCNc1cc(C(=O)O)cc([S+](N)(=O)[O-])c1Oc1ccccc1`
a: 419

q: Sample `C=C1/C(=C\C=C2/CCC[C@]3(C)[C@@H]([C@H](C)/C=C/[C@H](C)C(C)C)CC[C@@H]23)C[C@@H](O)C[C@@H]1O` — what was its AUC of viability dose-response curve?
a: 446

q: Name the recorded AUC of viability dose-response curve for `CN1\C(=C(\O)C2=C(C=CS2)[S+]1([O-])=O)C(=O)NC3=CC=CC=N3` .
a: 467

q: What AUC of viability dose-response curve value was documented for this compound, `CC(C)Nc1cc(C(F)(F)F)cc2nc(NC(=O)c3cccnc3)nn12` ?
a: 340

q: Quick one: AUC of viability dose-response curve of CNC1[C@@H](O)C(O[C@@H]2C(O)C(O[C@H]3O[C@H]([C@@H](C)NC)CC[C@H]3N)[C@@H](N)C[C@H]2N)OC[C@]1(C)O (some centres undefined) ?
a: 459

q: Entry CCC1(c2ccc(N)cc2)CCC(=O)NC1=O (centres undefined) : reported AUC of viability dose-response curve = ?
a: 433

Consider the additional compound presented here.
q: Entry under review: `N=C(N)NC(=O)c1nc(Cl)c(N)nc1N` . Reported AUC of viability dose-response curve?
a: 446

----------
Recorded cell viability, one value per entry.
# Tested on: SEM cells
# Assay text: cell viability relative to DMSO control; higher = less cytotoxic
# Conditions used: RPMI 5 mM glucose + 10% dialyzed FBS; 48 h; 5.12 µM
// return numeric value only (unit: %, not printed)

q: What is its cell viability for SEM cells? Entry: `COc1cc(Nc2ncc(F)c(Nc3ccc4c(n3)NC(=O)C(C)(C)O4)n2)cc(OC)c1OC`
a: 9.48

q: Give the reported cell viability for `OC[C@H](Cc1ccccc1)Nc1nc(Oc2ccc3c(c2)CCC3)nc2c1ncn2Cc1ccc(-c2ccccc2)cc1` (system: SEM cells).
a: 88.5

q: Form field - read-out: cell viability; system: SEM cells; submitted item: `CN(C/C=C/C#CC(C)(C)C)Cc1cccc2ccccc12`
a: 117

q: GET /values?readout=cell viability&system=SEM cells&item= `COc1cc(C(C)=O)ccc1OCCCN1CCC(c2noc3cc(F)ccc23)CC1`
a: 158

q: Kindly state the measured cell viability obtained for `C[N+]1(C)[C@@H]2C[C@@H](OC(=O)[C@H](CO)c3ccccc3)C[C@H]1[C@@H]1O[C@@H]12.[Br-]` with SEM cells.
a: 121

q: Lab note: need cell viability for `C=CC1=C(C(=O)O)N2C(=O)[C@@H](NC(=O)/C(=N\O)c3csc(N)n3)[C@H]2SC1` on SEM cells, anyone have it?
a: 116

q: Short answer please: cell viability, SEM cells, entry `C[C@H]1C[C@H]2[C@@H]3CCC4=CC(=O)C=C[C@]4(C)[C@@]3(F)[C@@H](O)C[C@]2(C)[C@@]1(O)C(=O)CO`
a: 53.2

q: Query cell viability on SEM cells for `CCOc1ccc(Nc2nc(-c3c(C)nc4ccccn34)cs2)cc1`
a: 19.1

Others:
q: # get_value(readout= cell viability, system= SEM cells) for `O=C(/C=C/c1c(C(=O)[O-])[nH]c2cc(Cl)cc(Cl)c12)Nc1ccccc1`
a: 128

q: // map CC(=O)NC(CS)C(=O)O (stereo not drawn) to recorded cell viability (system: SEM cells)
a: 108

q: Please state recorded cell viability (tested on SEM cells) of `O=C1Nc2ccc(Cl)cc2[C@@](C#CC2CC2)(C(F)(F)F)O1`
a: 81.8

q: Query the reported cell viability for SEM cells; item: `CCN(CC)C(=S)SSC(=S)N(CC)CC`
a: 3.67

q: Query cell viability on SEM cells for `Clc1cc(Cl)cc(CNc2ncncc2-c2ccc3c(c2)OCO3)c1`
a: 105

q: Record `CC(=O)C\1=C(/C)C2=CN=C(NC3=CC=C(C=N3)N4CCNCC4)N=C2N(C5CCCC5)C1=O` : what is its cell viability with SEM cells?
a: 68.5

----------
# Tested on: P12-Ichikawa
# Assay text: cell viability relative to DMSO control; higher = less cytotoxic
# Conditions used: RPMI 5 mM glucose + 10% FBS; 48 h; 0.00702 µM
Known cell viability of a selection of compounds
Supply the numeric figure in %, leaving out any unit text.

q: What value of measured cell viability is listed for `O=C1Nc2ccc(Cl)cc2[C@@](C#CC2CC2)(C(F)(F)F)O1` ?
a: 78.6

q: Requested field: cell viability. Item: `OC[C@H]1O[C@H]([C@@H](F)[C@@H]1O)N2\C=C/C(=O)NC2=O`
a: 108

q: What measured cell viability goes with `O=C1\C=C/C[C@@H]2[C@H]3CCCN4CCC[C@@H](CN12)[C@@H]34` ?
a: 109

q: Value lookup for cell viability; key = CCC1(c2ccc(N)cc2)CCC(=O)NC1=O (stereo unspecified)
a: 120

More entries:
q: Which cell viability reading was recorded for the compound `CN1\C(=C(\O)C2=C(C=CS2)[S+]1([O-])=O)C(=O)NC3=CC=CC=N3` ?
a: 119

q: What measured cell viability goes with `CC(=O)O[C@@]1(CC[C@H]2[C@@H]3\C=C(C)/C4=C/C(=O)CC[C@]4(C)[C@H]3CC[C@]12C)C(C)=O` ?
a: 110

----------
# Tested on: SEM cells
# Assay text: cell viability relative to DMSO control; higher = less cytotoxic
# Conditions used: RPMI 5 mM glucose + 10% dialyzed FBS; 48 h; 0.0632 µM
# maps each entry to its cell viability
Dear colleague, please return just the value in %, with no unit written.

Some entries whose results are on file:
q: // lookup cell viability for `Cn1c(Nc2ccc(C(F)(F)F)cc2)nc2cc(Oc3ccnc(-c4nc(C(F)(F)F)c[nH]4)c3)ccc21`
a: 128

q: Consider the molecule shown here: `C[C@@H](O)[C@@H]1[C@H]2[C@@H](C)\C(=C(/N2C1=O)C(=O)OCOC(=O)C(C)(C)C)SC3CN(C3)/C4=N/CCS4` What is its recorded cell viability?
a: 122

q: Entry under review: `CCC[C@H](N[C@@H](C)C(=O)N1[C@H](C(=O)O)C[C@@H]2CCCC[C@@H]21)C(=O)OCC` . Reported cell viability?
a: 111

q: Requested read-out: cell viability. Entry: `CN1CCC(CC1)COC2=CN=C(N=C2)C3=CC(=CC=C3)CN4/N=C(\C=C/C4=O)C5=CC(=CC=C5)C#N`
a: 99.2

q: Could you share which cell viability value was measured for `OC[C@H](Cc1ccccc1)Nc1nc(Oc2ccc3c(c2)CCC3)nc2c1ncn2Cc1ccc(-c2ccccc2)cc1` ?
a: 92.4

Next:
q: For `CC1(C)CCC(=C(CN2CCN(CC2)C3=CC=C(C=C3)C(=O)N[S+]([O-])(=O)C4=CC(=C(N[C@H](CCN5CCOCC5)CSC6=CC=CC=C6)C=C4)[S+]([O-])(=O)C(F)(F)F)\C1)/C7=CC=C(Cl)C=C7` , what is its reported cell viability?
a: 49.6

q: # cell viability lookup, item `CC(C)(C)C(=O)OCOP(=O)(COCCn1cnc2c(N)ncnc21)OCOC(=O)C(C)(C)C`
a: 48.5

q: # input molecule: `CCCCCCCc1ccc(CCc2cccc(O)c2C(=O)O)cc1` ; wanted: its cell viability
a: 119

q: Would you mind telling me what cell viability value was observed for `COc1cc(C(C)=O)ccc1OCCCN1CCC(c2noc3cc(F)ccc23)CC1` ?
a: 115

q: So what does the record say about cell viability for `CN(C/C=C/C#CC(C)(C)C)Cc1cccc2ccccc12` ?
a: 110

q: Could you share which cell viability value was measured for `C[C@@]12O[C@@H](C[C@]1(O)CO)n1c3ccccc3c3c4c(c5c6ccccc6n2c5c31)CNC4=O` ?
a: 65

q: # cell viability lookup, item `COc1cc2nc(N3CCCN(C)CC3)nc(NC3CCN(Cc4ccccc4)CC3)c2cc1OC`
a: 128

q: Which cell viability is reported for this molecule? `O=C(NC[C@H]1CN(c2ccc(N3CCOCC3=O)cc2)C(=O)O1)c1ccc(Cl)s1`
a: 116

q: Param item = `Cc1cccc(C)c1OCC(=O)N[C@@H](Cc1ccccc1)[C@@H](O)C[C@H](Cc1ccccc1)NC(=O)[C@H](C(C)C)N1CCCNC1=O` ; retrieve measured cell viability.
a: 104

q: Entry `NC1=NC=C(C=C1)C2=CC=C3N=CC\4=C(N(C(=O)\C=C4)C5=CC(=CC=C5)C(F)(F)F)C3=C2` : reported cell viability = ?
a: 34.8

q: Any idea what its cell viability is? The molecule is `CN1\C(=C(\O)C2=C(C=CS2)[S+]1([O-])=O)C(=O)NC3=CC=CC=N3`
a: 107

The values you see were collected from the supplement of paper PMC11451515.
